System: OVCAR-3 ovarian
Experimental details: NCI-60 one-dose screen, 48 h
Condition info: 10 µM unless noted
About 83,000 compounds went through this panel and 20% of them were active in at least one assay; those are over-represented in the sample as a whole. Calls of active or inactive are those of the source. How the source made its calls: active means growth percent below 10; inactive means the rest.
Select the matching outcome among T = active, F = inactive

IN: For this molecule, state the assay outcome: `CC(C)(C)CC(C)(C)c1ccc(OCCSC(=N)N)cc1`
OUT: F

IN: For this molecule, state the assay outcome: `N#CSCc1ccc(Cl)c(CSC#N)c1`
OUT: F

IN: For this molecule, state the assay outcome: Cc1ccnc(NC(c2ccccc2)c2ccc3cccnc3c2O)c1 (stereo not given)
OUT: F

IN: For this molecule, state the assay outcome: `O=C(/C=C\c1cc(Br)ccc1O)/C=C/c1cc(Br)ccc1O`
OUT: T

IN: For this molecule, state the assay outcome: N#CC1C(=O)SC2c3ccccc3C(=O)c3ccccc3C12 (stereo not given)
OUT: F

IN: For this molecule, state the assay outcome: `Cc1ccc2c(ccc3c[n+]4c5ccccc5ccc4n32)c1`
OUT: T

IN: For this molecule, state the assay outcome: `Nc1ccc(SSc2ccc(N)cc2)cc1`
OUT: F

IN: For this molecule, state the assay outcome: `Cc1ccc2nc(-[n+]3cc4ccccc4cc3C)ccc2c1`
OUT: F

IN: For this molecule, state the assay outcome: CN1c2ccccc2C(C)(C)C12C=Cc1cc(O)ccc1O2 (stereo not given)
OUT: T

IN: For this molecule, state the assay outcome: `C[n+]1c(/C=C/c2ccc([N+](=O)[O-])cc2)ccc2ccccc21`
OUT: F

IN: For this molecule, state the assay outcome: `Oc1ccc(/C=N/NC(=S)Nc2ccccc2)nc1`
OUT: F

IN: For this molecule, state the assay outcome: O=C1C2=C(Nc3cc([N+](=O)[O-])ccc3N2)OC1c1c2ccccc2cc2ccccc12 (stereo not given)
OUT: F

IN: For this molecule, state the assay outcome: `NC1=CC(=O)c2ccccc2C1=O`
OUT: F

IN: For this molecule, state the assay outcome: `CCCCCCCCCCCCCCCCN(CC)CC`
OUT: T

IN: For this molecule, state the assay outcome: `CCN(CC)CC(C)(C)C(=O)/C=C/c1ccc(Cl)c(Cl)c1`
OUT: T

###

Please respond with reported growth for every item in the list.
Tested on: NCI-H460 lung
Experimental details: NCI-60 one-dose screen, 48 h (100 = growth as untreated, 0 = no growth, -100 = all killed)
Condition info: 10 µM unless noted
Procedure: Growth inhibition of the NCI-H460 human Non-Small Cell Lung tumor cell line is measured as a screen for anti-cancer activity. Cells are grown in 96 well plates and exposed to the test compound for 48 hours. Compounds are tested at a single concentration, which is 10^-5 M for most compounds. The reported endpoint is percent growth (GI% or GIPRCNT), where numbers from 0 - 100% represent growth inhibition, and numbers from -100% - 0 represent cell death. […]
This is part of a sample that, as a whole, favours compounds with a hit. Of some 83,000 tested, about 20% had one in any assay. Activity calls are given as the source filed them. How the source made its calls: active means growth percent below 10; inactive means the rest.

IN: Entry N#CC1C(=O)SC2c3ccccc3C(=O)c3ccccc3C12 (stereo not given) needs its growth filled in; supply it.
OUT: 96.9% (inactive)

IN: Entry `OC(CNc1ccnc2cc(Cl)ccc12)CNc1ccnc2cc(Cl)ccc12` needs its growth filled in; supply it.
OUT: 63.5% (inactive)

IN: Entry `O=[N+]([O-])c1ccc2c(N=Nc3ccc4ccccc4c3O)c(O)cc(S(=O)(=O)O)c2c1` needs its growth filled in; supply it.
OUT: 102% (inactive)

IN: Entry `CNC(=O)N/N=C/c1ccc([N+](=O)[O-])o1` needs its growth filled in; supply it.
OUT: 109% (inactive)

IN: Entry `N#CSCc1ccc(CSC#N)c(Cl)c1` needs its growth filled in; supply it.
OUT: 75.5% (inactive)

###

Test system: HCT-15 colon
Experimental details: NCI-60 one-dose screen, 48 h
Condition info: 10 µM unless noted
About 83,000 compounds went through this panel and 20% of them were active in at least one assay; those are over-represented in the sample as a whole. Active and inactive are the calls of the source. Rule for the calls: active = growth percent below 10; inactive = the rest.
Select the matching outcome among Y for active, N for inactive

IN: For this molecule, state the assay outcome: `O=Nc1ccccc1N=O`
OUT: N

IN: For this molecule, state the assay outcome: `CCC(=O)Sc1ccccc1C(=O)Nc1ccc(Cl)cc1`
OUT: N

IN: For this molecule, state the assay outcome: `COc1ccc(N=N/N=c2\sc3cc(OC)ccc3n2C)cc1`
OUT: N

IN: For this molecule, state the assay outcome: `CCCCCC(CCCCC)C(=O)O`
OUT: N

IN: For this molecule, state the assay outcome: `Oc1ccc(/C=N/NC(=S)Nc2ccccc2)nc1`
OUT: N

IN: For this molecule, state the assay outcome: `O=C(Nc1ccc(F)cc1)ON=C1CCCCC1`
OUT: N

IN: For this molecule, state the assay outcome: CN(C)c1ccc(C(=C2C=CC(=[N+](C)C)C=C2)c2ccc(N(C)C)cc2)cc1 (tested in a mixture with another compound)
OUT: Y

IN: For this molecule, state the assay outcome: `O=C1c2ccccc2C(=O)N1c1ccccc1`
OUT: N

IN: For this molecule, state the assay outcome: `NC(=S)N/N=C\c1nccc2c(C(F)(F)C(F)(F)C(F)(F)F)cccc12`
OUT: N

IN: For this molecule, state the assay outcome: `NC(=O)/C=C/C(=O)c1c(Cl)cccc1Cl`
OUT: Y

IN: For this molecule, state the assay outcome: `O=C1N[C@H]2[C@H](CS[C@H]2CCCCC(=O)N(CCP(c2ccccc2)c2ccccc2)CCP(c2ccccc2)c2ccccc2)N1`
OUT: N

IN: For this molecule, state the assay outcome: `Cn1c2ccccc2c2nnc(N/N=C/c3ccccn3)nc21`
OUT: N

IN: For this molecule, state the assay outcome: CN1c2ccccc2C(C)(C)C12C=Cc1cc(O)ccc1O2 (stereo not drawn)
OUT: N

###

System: MOLT-4 leukemia
Experimental details: NCI-60 one-dose screen, 48 h (100 = growth as untreated, 0 = no growth, -100 = all killed)
Condition info: 10 µM unless noted
About 83,000 compounds went through this panel and 20% of them were active in at least one assay; those are over-represented in the sample as a whole. The source made the active and inactive calls. How the source made its calls: active means growth percent below 10; inactive means the rest.
Property: growth

IN: State growth on MOLT-4 leukemia. Entry: `CNc1ccc(N)cc1`
OUT: 97.6% (inactive)

IN: State growth on MOLT-4 leukemia. Entry: `N#CSCc1ccc(Cl)c(CSC#N)c1`
OUT: 17.5% (inactive)

IN: State growth on MOLT-4 leukemia. Entry: `CCOC(=O)/C(=C\c1ccc(-c2ccccc2)cc1)C(C)=O`
OUT: 107% (inactive)

IN: State growth on MOLT-4 leukemia. Entry: `Cc1cc(C(C)(CC(C)C)c2ccc(O)c(C)c2)ccc1O`
OUT: 80.8% (inactive)

IN: State growth on MOLT-4 leukemia. Entry: `C=CCOc1ccc(N=NC(C#N)C#N)cc1`
OUT: 19.5% (inactive)

IN: State growth on MOLT-4 leukemia. Entry: `Cc1ccc2nc(-[n+]3cc4ccccc4cc3C)ccc2c1`
OUT: 44.7% (inactive)

IN: State growth on MOLT-4 leukemia. Entry: `O=C(O)c1ccc2c3c(ncnc13)-c1ccccc1C2=O`
OUT: 96.3% (inactive)

IN: State growth on MOLT-4 leukemia. Entry: `CCOC(=O)c1c(C)[nH]c(CO)c1C`
OUT: 96.6% (inactive)

IN: State growth on MOLT-4 leukemia. Entry: `Oc1ccc(/C=N/NC(=S)Nc2ccccc2)nc1`
OUT: -35.2% (active)

IN: State growth on MOLT-4 leukemia. Entry: COC(=O)[C@@]12OC[C@]34[C@H]([C@@H](O)[C@@H]1O)[C@@]1(C)[C@H](O)C(=O)C=C(C)[C@@H]1C[C@H]3OC(=O)C(OC(C)=O)[C@@H]24 (stereo not given in full)
OUT: -41.6% (active)

IN: State growth on MOLT-4 leukemia. Entry: CCCCCCCCCCCCCCCC[N+](C)(CCO)Cc1cnc[nH]1 (stereo not given)
OUT: -77.2% (active)

IN: State growth on MOLT-4 leukemia. Entry: O=C(CC1(O)C(=O)Nc2c(Cl)ccc(Cl)c21)c1ccc(Cl)cc1Cl (stereo not given)
OUT: 106% (inactive)

IN: State growth on MOLT-4 leukemia. Entry: `O=C(Nc1cccc(Br)c1)Oc1ccc(Cl)c2cccnc12`
OUT: 2% [100 µM] (active)

IN: State growth on MOLT-4 leukemia. Entry: `COC(=O)c1nc(=S)[nH]c(C(=O)OC)c1C(=O)c1ccccn1`
OUT: 2.29% (active)

IN: State growth on MOLT-4 leukemia. Entry: `C[N+](C)=c1ccc2nc3c(cc(NCCCNc4cc5oc6cc(=[N+](C)C)ccc-6nc5c5ccccc45)c4ccccc43)oc-2c1`
OUT: 5.25% (active)

IN: State growth on MOLT-4 leukemia. Entry: `Cc1ccc2nc(C[n+]3ccc4ccccc4c3)ccc2c1`
OUT: 71.9% (inactive)

IN: State growth on MOLT-4 leukemia. Entry: CN1c2ccccc2C(C)(C)C12C=Cc1cc(O)ccc1O2 (stereo not given)
OUT: -17.6% (active)

IN: State growth on MOLT-4 leukemia. Entry: `CCN(CC)CC(C)(C)C(=O)/C=C/c1ccc(Cl)c(Cl)c1`
OUT: 2.21% (active)

IN: State growth on MOLT-4 leukemia. Entry: `CNc1ccc2c(c1)c1ccccc1n2C`
OUT: 88.1% (inactive)

IN: State growth on MOLT-4 leukemia. Entry: `Oc1c(Br)cc(Cl)cc1C(c1cc(Cl)cc(Br)c1O)C(Cl)(Cl)Cl`
OUT: 14.6% (inactive)

IN: State growth on MOLT-4 leukemia. Entry: `CN(C)CCOc1ccc2c(c1)C(=O)/C(=C\c1ncc([N+](=O)[O-])n1C)C2`
OUT: -32.1% (active)

IN: State growth on MOLT-4 leukemia. Entry: `OC(CNc1ccnc2cc(Cl)ccc12)CNc1ccnc2cc(Cl)ccc12`
OUT: 12% (inactive)

IN: State growth on MOLT-4 leukemia. Entry: `O=C1N[C@H]2[C@H](CS[C@H]2CCCCC(=O)N(CCP(c2ccccc2)c2ccccc2)CCP(c2ccccc2)c2ccccc2)N1`
OUT: 82.8% (inactive)

IN: State growth on MOLT-4 leukemia. Entry: `CN=C(N)N/N=C(\C)c1ccc2c(c1)Cc1cc(/C(C)=N/NC(N)=NC)ccc1-2`
OUT: -10.8% (active)

IN: State growth on MOLT-4 leukemia. Entry: `NC(=O)/C=C/C(=O)c1c(Cl)cccc1Cl`
OUT: -26.3% (active)
